- assayComment: Protein yield of PodA variants purified from inclusion bodies of overexpression culture
- studyConditions: purified from inclusion bodies, per L of E. coli overexpression culture
Answer each item with its documented Yield.
All answers are understood in mg/L^−1, so give the number only.

Exam item: Which measured Yield value corresponds to PodA3: Designed PodA41-162 variant: I73K, A87V, T91V, M99V, A129V (protein) VTMTLDVKNDQVAKHDFGKPGMDVGDMDIFSDKLSVDGKQVGYDGGVCFFVNVTPDNPVTYCELTIHLDAGEIFARSLTPHTLAPFTMVITGGTGEYANSKGELTVSGVATPDEKYELKLTK ?
Marked response: 9.45

Exam item: And PodA2: Designed PodA41-162 variant: I73T, A87V, T91V, M99V, A129V (protein) VTMTLDVKNDQVAKHDFGKPGMDVGDMDIFSDTLSVDGKQVGYDGGVCFFVNVTPDNPVTYCELTIHLDAGEIFARSLTPHTLAPFTMVITGGTGEYANSKGELTVSGVATPDEKYELKLTK ?
Marked response: 16.1
